test system: M14; experiment: NCI tumour cell line growth inhibition, 48 h
The source made the active and inactive calls. No stated cut-off is given here; in the data, active = GI50 up to about 1.1 µM and inactive = higher.
Reported Property: GI50

Illustrative cases are given below, each with its answer.
Please report the recorded GI50 for CCOC(=O)C(Sc1ccccc1)c1c(OC)cc(=O)oc1/C=[N+](/[O-])c1ccc(N(C)C)cc1 (stereo not drawn) . 16.2 µM (inactive)

So what does the record say about GI50 for CC(C)(C)C1CCC(O)(c2ccccc2)CC1 (stereo not drawn) ? 71.8 µM (inactive)

More entries:
Give the measured GI50 of CCCC(=O)OCC1OC2OC(C)(C)OC2C2OC(C)(C)OC12 (stereo not drawn) . > 100 µM (inactive)

###

system: RXF 393; test: NCI tumour cell line growth inhibition, 48 h
Active and inactive are the calls of the source. No stated cut-off is given here; in the data, active = GI50 up to about 1.1 µM and inactive = higher.
# GI50 per entry

Below, 2 compounds whose answers are already recorded.
Looking for the measured GI50 of CC/C=C\C/C=C\C/C=C\CCCCCCCC(=O)OC(COC(=O)CCCCCCCCCCCCCCCCC)COC1OC(CO)C(O)C(O)C1O (stereo not drawn) , can you help? > 25 µM (inactive)

Data request, read-out GI50, for "Nc1c(C(=O)c2ccccc2)[nH]c(NCc2ccccc2)c1C(=S)Nc1ccccc1" > 100 µM (inactive)

Continuing:
Quick one: GI50 of "O=[N+]([O-])c1ccc(/C=C(/c2ccc([N+](=O)[O-])o2)S(=O)(=O)c2ccccc2)o1" ? 25.1 µM (inactive)

Query (compound): "O=C(N/N=C1/C(=O)c2c3ccccc3cc3cccc1c23)c1ccccc1" ; field requested: GI50 22.1 µM (inactive)

// returns reported GI50 for input "Cc1cc2c(O)c(c1)CN(CC(=O)O)Cc1cc(C)cc(c1O)CN(CC(=O)O)Cc1cc(C)cc(c1O)CN(CC(=O)O)C2" > 100 µM (inactive)

###

tested on: UACC-257; test: NCI tumour cell line growth inhibition, 48 h
The source made the active and inactive calls. Cut-off read from the data, not from the text of the source: active = GI50 up to about 1.1 µM and inactive = higher. Where a SMILES comes first, the peptide text is derived from it.
Each record here notes measured GI50.

Which GI50 is listed for Cc1cc(Cl)ccc1NC(=O)CC1SC(Nc2ccccc2Cl)=NC1=O (stereo unspecified) ? 50.2 µM (inactive)

Please look up its GI50: "CN(/N=N/c1[nH]cnc1C(N)=O)C1CCCCC1" 62.1 µM (inactive)

Returns the measured GI50 for the input molecule. Input: "COc1ccc(S(=O)(=O)N[C@H](C(=O)O)c2ccccc2)cc1" > 100 µM (inactive)

Request the reported GI50 associated with "Cc1cc(C)c(-c2noc(-c3ccc(Cl)cc3)c2C2=NCCN2)c(C)c1" 17.5 µM (inactive)

Others:
Quick one: GI50 of COc1ccc(C23c4ccc(OC)cc4CC2(c2ccc([N+](=O)[O-])cc2)Cc2cc(OC)ccc23)cc1 (stereo unspecified) ? > 51.3 µM (inactive)

Which GI50 reading was recorded for the molecule "CC1=Cc2ccc(C)cc2C(=O)C1=O" ? 5.89 µM (inactive)

Data request, read-out GI50, for CC1NC(=O)CNC(=O)CNC(=O)C(Cc2ccc(O)cc2)NC(=O)C(C(C)C)NC(=O)C(C)NC1=O (stereo unspecified) (cyclo(GGAAVY); configuration not given here) > 100 µM (inactive)

Report GI50 for CN(C)CC1CCC/C1=N/OC(=O)c1ccccc1 (stereo unspecified) please. > 100 µM (inactive)

Look up GI50 for this molecule: "N#CCc1cccc(CC#N)c1Br" > 100 µM (inactive)

Given the molecule COc1ccc(C2NC3=C(CCCC3)C3(C#N)C(=O)N=C(N)C23C#N)cc1 (stereo unspecified) , what is its reported GI50? > 100 µM (inactive)

Sample CC/C=C\C/C=C\C/C=C\CCCCCCCC(=O)OC(COC(=O)CCCCCCCCCCCCCCCCC)COC1OC(CO)C(O)C(O)C1O (stereo unspecified) — what was its GI50? > 25 µM (inactive)

###

tested on: MDA-MB-435; assay: NCI tumour cell line growth inhibition, 48 h
Active and inactive are the calls of the source. Rule as the data show it: active = GI50 up to about 1.1 µM and inactive = higher.
I would appreciate it if you answered using one of these outcomes: T (active), F (inactive)

Would you mind telling me which call this test gave "Cc1cc2c(cc1C)[n+]([O-])c(C(F)(F)F)c(C(=O)c1ccccc1)[n+]2[O-]" ? F

What call does the record list for COc1cc(O)c2c(=O)c(OC)c(-c3ccc(OC)c(O)c3)oc2c1 [AYANIN] ? F

How did this test come out for "C(=C\c1nccs1)/c1cccc(/C=C/c2nccs2)n1" ? F

Hi team, can someone confirm the assay call for "N#CC(C#N)=C/C=C(\Sc1c(Cl)c(Cl)nc(Cl)c1Cl)c1ccc(Cl)cc1" ? F

GET /call?item= CC(O)(c1ccccc1)c1nccc2ccccc12 (stereo unspecified) returns the recorded outcome of this test. F

###

test system: U-251; assay: NCI tumour cell line growth inhibition, 48 h
Activity calls are given as the source filed them. No stated cut-off is given here; in the data, active = GI50 up to about 1.1 µM and inactive = higher.
GI50: recorded values

Solved cases (4 shown):
Recorded GI50 for "C=CCn1c(-c2ccc([N+](=O)[O-])cc2)cs/c1=N\C(P(=O)(O)O)P(=O)(O)O" , please? > 100 µM (inactive)

Entry COc1ccc(C2NC3=C(CCCC3)C3(C#N)C(=O)N=C(N)C23C#N)cc1 (stereo not given) has what GI50? > 100 µM (inactive)

I am curious: what GI50 value has been reported for "N#Cc1c([N+](=O)[O-])cc(C(F)(F)F)cc1[N+](=O)[O-]" ? 18.8 µM (inactive)

Consider the molecule CC1=C(C(=O)OC23CC4CC(CC(C4)C2)C3)C(c2ccccc2OC(F)F)C(C(=O)OC23CC4CC(CC(C4)C2)C3)=C(C)N1 (stereo not given) and give its measured GI50. > 100 µM (inactive)

Could you now look at the following molecule, please?
Field request: GI50 | item: CN(C)CC1CCC/C1=N/OC(=O)c1ccccc1 (stereo not given) > 100 µM (inactive)

###

test system: OVCAR-5; experiment: NCI tumour cell line growth inhibition, 48 h
Activity calls are given as the source filed them. Cut-off read from the data, not from the text of the source: active = GI50 up to about 1.1 µM and inactive = higher.
Answer with one of the outcomes given here: active, inactive

The following compounds have reported results that may help.
Outcome? "CC(C)(C)c1cc(C(=O)/C=C/c2cc[nH]n2)cc(C(C)(C)C)c1O" inactive

Per the assay record, what outcome was assigned to C=CCC1(OC(C)=O)C2OC(=O)C1(O)OCC2O (centres undefined) ? inactive

Which result was noted for this compound in the test: "CC(=O)Nc1ncc(Sc2ccccc2C(=O)O)s1" inactive

---
Assay outcome for COC(=O)C([C@H]1CC[C@H](OCc2ccccc2)[C@@]1(O)COCc1ccccc1)C(C)(O)CCc1ccccc1 (some centres undefined) : what was it? inactive

Which result was noted for this compound in the test: "CC(C)OC(=O)c1ccc(NCC2=CC(=O)C=CC2=O)cc1Cl" inactive

How was "Cc1cc(C)nc(NS(=O)(=O)c2ccc(Nc3c4ccccc4nc4c(C(=O)N5CCN(CCO)CC5)ccc(Cl)c34)cc2)n1" classified in this test? inactive

Assay outcome for C=C(C)[C@@]12C[C@H](OC(=O)[C@H](O)[C@@H](NC(=O)c3ccccc3)c3ccccc3)C(C)=C1[C@@H](OC(C)=O)C(=O)[C@@]1(C)C([C@@H]2OC(=O)c2cc(F)cc(F)c2)C2(OC(C)=O)CO[C@@H]2C[C@@H]1O (some centres undefined) : what was it? active

I would be grateful if you could indicate the recorded call for "O=C1C(=O)N(c2ccc(Cl)cc2)C(=O)C(=O)C1c1nc2ccccc2o1" . inactive

Which result was noted for this compound in the test: "CCCc1c(O)nc(Nc2nc3ccccc3[nH]2)[nH]c1=O" inactive

###

tested on: HOP-92; assay: NCI tumour cell line growth inhibition, 48 h
Activity calls are given as the source filed them. Cut-off read from the data, not from the text of the source: active = GI50 up to about 1.1 µM and inactive = higher.
List of GI50 values.

// query GI50 value for entry "CC(C)(C)c1cc(C(=O)/C=C/c2cc[nH]n2)cc(C(C)(C)C)c1O" 2.21 µM (inactive)

Can you share its GI50? I mean this compound: COC(=O)C(CC1=C(O)Nc2ccccc2N1)/C(=N/NC(N)=O)C(=O)Nc1ccccc1C (centres undefined) 44 µM (inactive)

Sample COC(C)(C)[C@@H](O)[C@H]1C[C@H](C)[C@@]2(CC[C@]3(C)[C@@H]2CC[C@@H]2[C@@]4(C)CC[C@@H](OC(C)=O)C(C)(C)[C@@H]4C[C@@H](OC4OC(COC(C)=O)C(O)C(O)C4O)[C@]23C)O1 (some centres undefined) — what was its GI50? 4.8 µM (inactive)

Note: attention shifts to another entry.
Given the entry "C/C=C/CC(S(=O)(=O)c1ccccc1)S(=O)(=O)c1ccccc1" , report its measured GI50. > 100 µM (inactive)

###

system: NCI-H226; experiment: NCI tumour cell line growth inhibition, 48 h
Calls of active or inactive are those of the source. No stated cut-off is given here; in the data, active = GI50 up to about 1.1 µM and inactive = higher.
Reported Property: GI50

Endpoint output: GI50 of "O=C1C(=O)N(c2ccc(Cl)c(Cl)c2)C(=O)C(=O)C1c1nc2ccccc2s1" . Value? 88.7 µM (inactive)

Look at this compound and give its reported GI50. CCCCCCCCCCCCCCCCCCNc1nc(=O)n(C2CC(O)C(COP(=O)(O)OCC3OC(n4ccc(N)nc4=O)C(O)C3O)O2)cc1F (stereo not given) > 100 µM (inactive)

Given "CCOC(=O)c1cnc2c(ccc3ncccc32)c1NCCCN(CC)CC" , state its recorded GI50. > 100 µM (inactive)

Sample CN1C(c2ccccc2)CC(=Nc2ccccc2)CC1c1ccccc1 (stereo not given) — what was its GI50? 11.7 µM (inactive)

In the following, a different compound is considered.
Item "N#Cc1nc2ccccc2nc1N1CCN(c2ccc([N+](=O)[O-])cc2)CC1" has what recorded GI50? > 100 µM (inactive)
